viability for assorted compounds
assay_overview: drug combination growth inhibition, ovarian cancer – cell-based, oncology-focused library, rucaparib conditional, profiling panel (AID 1508598)
experimental_setup: patient-derived ovarian cancer cells, CellTiter-Glo viability, 144 h; at 1.25 µM; OCI-C5x cells; without rucaparib; stronger effect = lower value
Return type: number; implicit unit %.

sample_smiles=C[C@H](NC(=O)Cc1cc(F)cc(F)c1)C(=O)N[C@@H]1C(=O)N(C)c2ccccc2-c2ccccc21 quantity_name=viability test_result=144
sample_smiles=CC(C)(C)c1cc(NC(=O)Nc2ccc(-c3cn4c(n3)sc3cc(OCCN5CCOCC5)ccc34)cc2)no1 quantity_name=viability test_result=128
sample_smiles=CCOc1cc(N2CCC(O)CC2)ccc1Nc1ncc2c(n1)N(C)c1ccccc1C(=O)N2C quantity_name=viability test_result=121
sample_smiles=COCCn1c2c([n+](Cc3cnccn3)c1C)C(=O)c1ccccc1C2=O quantity_name=viability test_result=1.76
sample_smiles=COc1cc2nccc(Oc3ccc(NC(=O)NC4CC4)c(Cl)c3)c2cc1C(N)=O quantity_name=viability test_result=111

Give its viability value. Item: S=C(NCc1ccc2c(c1)OCO2)N1CCN(c2ncnc3c2oc2ccccc23)CC1 107

Fill in: viability of Oc1cccc(-c2nc(N3CCOCC3)c3oc4ncccc4c3n2)c1 is ___ 86.7

Consider the compound COc1ccc(-c2ccc3c(N4CCOC[C@@H]4C)nc(N4CCOC[C@@H]4C)nc3n2)cc1CO and give its measured viability. 47.3

viability for CN(C)Cc1ccc(-c2nc3cccc4c3n2CCNC4=O)cc1 ? 121

Data request, read-out viability, for CNC(=O)c1ccc(C)c(-n2c(C)cc(OCc3ccc(F)cc3F)c(Br)c2=O)c1 112

====

Below, each entry is listed with its recorded cell count.
assay_overview: viability loss with induced miR-34 in A549 – imaging, A549 dox-inducible miR-34, nuclei and caspase counts, primary screen (AID 1347080)
experimental_setup: A549 miR-34 inducible, Hoechst nuclei count, 48 h; measured here: total cells without miR-34 induction
// keep it numeric: no unit symbol after the value

Below, each entry is followed by its recorded cell count result.
molecule=CCCCC[C@H](O)/C=C/[C@H]1C=CC(=O)[C@H]1C/C=C\CCCC(=O)O test_result=5800
molecule=CCCCC/C=C/C=C1/C=CC(=O)[C@@H]1CCCCCCC(=O)O test_result=3250

Quick check: cell count of C/C=C/C[C@@H](C)[C@@H](O)[C@H]1C(=O)N[C@@H](CC)C(=O)N(C)CC(=O)N(C)[C@@H](CC(C)C)C(=O)N[C@@H](C(C)C)C(=O)N(C)[C@@H](CC(C)C)C(=O)N[C@@H](C)C(=O)NC(C)C(=O)N(C)[C@@H](CC(C)C)C(=O)N(C)[C@@H](CC(C)C)C(=O)N(C)[C@@H](C(C)C)C(=O)N1C (stereo partly drawn) ? 2230

====

Reported fold change values are given for each entry in this list.
assay_overview: viability loss with induced miR-34 in A549 – imaging, A549 dox-inducible miR-34, nuclei and caspase counts, primary screen (AID 1347080)
experimental_setup: A549 miR-34 inducible, Hoechst nuclei count, 48 h; measured here: relative caspase fold change +Dox/-Dox
Answer field: number only, no words.

compound=COc1ccc(-n2c(SCCCN3C(=O)c4cccc5cccc(c45)C3=O)nnc2-c2ccncc2)cc1 test_result=0.42
compound=CC[C@@H]1/C=C(\C)C[C@H](C)C[C@H](OC)[C@H]2O[C@@](O)(C(=O)C(=O)N3CCCC[C@H]3C(=O)O[C@H](/C(C)=C/[C@@H]3CC[C@@H](O)[C@H](OC)C3)[C@H](C)[C@@H](O)CC1=O)[C@H](C)C[C@@H]2OC test_result=1.28
compound=CC(=O)N1CCN(C)CC1 test_result=0.837
compound=CCCCC[C@H](O)/C=C/[C@@H]1[C@@H](C/C=C\CCCCOC)[C@@H](O)C[C@H]1O test_result=1.35
compound="Cc1nnc(-c2ccc3occ(-c4ccc(S(C)=O)cc4)c3c2)o1 (stereo not drawn)" test_result=1.35

# get_value(readout='fold change', item= COc1cc2c(Oc3ccc(NC(=O)C4(C(=O)Nc5ccc(F)cc5)CC4)cc3F)ccnc2cc1OCCCN1CCOCC1 ) 0.77

// fold change lookup, key: Cn1c(Nc2ccc(C(F)(F)F)cc2)nc2cc(Oc3ccnc(-c4ncc(C(F)(F)F)[nH]4)c3)ccc21 0.95

So what's the measured fold change for this one? CCCCCCCCCCCCCCCC(=O)NC(CO)CO 0.974

Just for reference, PubChem BioAssay is where these values come from.
